These measurements were taken from ChEMBL document CHEMBL1201862.

- MEASUREMENT TARGET: UniProt:Q9BQF6
- Sequence (Q9BQF6 whole entry): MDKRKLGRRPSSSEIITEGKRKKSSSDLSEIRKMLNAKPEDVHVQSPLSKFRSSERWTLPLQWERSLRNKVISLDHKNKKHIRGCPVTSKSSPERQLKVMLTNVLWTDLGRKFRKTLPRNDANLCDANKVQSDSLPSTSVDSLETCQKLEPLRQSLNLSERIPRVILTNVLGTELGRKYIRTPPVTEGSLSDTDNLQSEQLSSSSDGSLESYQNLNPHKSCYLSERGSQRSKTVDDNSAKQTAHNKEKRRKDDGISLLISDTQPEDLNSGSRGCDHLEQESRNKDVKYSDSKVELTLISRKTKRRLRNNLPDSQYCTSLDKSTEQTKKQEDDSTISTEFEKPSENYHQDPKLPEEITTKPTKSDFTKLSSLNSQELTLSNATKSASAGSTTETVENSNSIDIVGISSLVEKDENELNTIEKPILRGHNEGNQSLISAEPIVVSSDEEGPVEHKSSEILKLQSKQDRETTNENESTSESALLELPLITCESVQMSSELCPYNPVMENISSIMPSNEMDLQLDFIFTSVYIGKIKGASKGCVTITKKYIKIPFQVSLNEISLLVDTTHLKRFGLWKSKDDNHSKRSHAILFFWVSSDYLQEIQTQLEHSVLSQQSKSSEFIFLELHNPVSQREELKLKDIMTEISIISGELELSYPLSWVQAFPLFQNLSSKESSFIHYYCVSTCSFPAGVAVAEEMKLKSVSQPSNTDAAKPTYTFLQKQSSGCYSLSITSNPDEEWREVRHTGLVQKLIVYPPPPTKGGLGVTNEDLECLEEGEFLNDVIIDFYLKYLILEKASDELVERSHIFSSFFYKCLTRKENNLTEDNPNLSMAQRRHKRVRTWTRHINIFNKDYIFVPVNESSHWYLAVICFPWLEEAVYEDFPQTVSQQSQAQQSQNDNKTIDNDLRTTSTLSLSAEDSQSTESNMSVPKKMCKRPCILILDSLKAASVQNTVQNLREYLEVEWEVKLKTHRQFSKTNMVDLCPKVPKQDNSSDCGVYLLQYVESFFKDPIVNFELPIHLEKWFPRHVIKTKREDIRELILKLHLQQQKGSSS
- Assay type: functional
Active and inactive are the calls of the source.
READOUT KIND: IC50

>>> observed_result("Cc1cc(-c2csc(Nc3ccccn3)n2)ccc1F")
"3.53 µM (active)"
>>> observed_result("O=C1C=C(Nc2ccccc2)c2ccccc2C1=O")
"12.2 µM (active)"
>>> observed_result("Cc1ccc(NC(=O)c2oc3ccccc3c2C)nc1")
"7.35 µM (active)"
>>> observed_result("CC1OC(Nc2cccc3ccccc23)C(O)C(O)C1O (stereo unspecified)")
"7.53 µM (active)"
>>> observed_result("O=c1cc(-c2ccc(O)cc2)oc2ccc(O)cc12")
"9.8 µM (active)"

Problem: Consider the compound `O=C1/C(=C/c2ccc([N+](=O)[O-])cc2)CCc2ccccc21` . State its measured IC50.
Solution: 0.696 µM (active)

###

- MEASUREMENT TARGET: UniProt:P10520
- Sequence (P10520 whole entry): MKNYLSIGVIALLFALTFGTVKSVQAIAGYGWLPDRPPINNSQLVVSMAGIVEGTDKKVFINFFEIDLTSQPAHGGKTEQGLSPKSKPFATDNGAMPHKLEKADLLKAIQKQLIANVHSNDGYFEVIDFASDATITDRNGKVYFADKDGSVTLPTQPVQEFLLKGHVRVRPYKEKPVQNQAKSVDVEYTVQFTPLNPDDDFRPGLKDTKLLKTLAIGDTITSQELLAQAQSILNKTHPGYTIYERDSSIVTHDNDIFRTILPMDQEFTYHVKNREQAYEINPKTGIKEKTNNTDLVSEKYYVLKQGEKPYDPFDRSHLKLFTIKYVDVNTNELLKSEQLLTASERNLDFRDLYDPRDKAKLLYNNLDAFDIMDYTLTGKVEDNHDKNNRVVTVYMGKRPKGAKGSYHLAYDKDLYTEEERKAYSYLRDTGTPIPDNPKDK
- ASSAY METHOD TEXT: viability-normalized secreted streptokinase activity reduction – plasminogen activation absorbance, OD405, dose response (AID 1914);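 note: secreted streptokinase activity via plasminogen activation per viability signal from cell pellet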
- Format: functional, Streptococcus pyogenes M1 GAS
Calls of active or inactive are those of the source.
READOUT KIND: EC50

Solved entries (count: 3):
>>> observed_result("Cc1ccc(-c2nn(-c3ccccc3)cc2/C=N/n2c(S)nnc2-c2cccs2)cc1")
"103 µM (active)"
>>> observed_result("COc1cccc(C(=O)NC(=S)Nc2ccccc2N2CCCCC2)c1")
"41 µM (active)"
>>> observed_result("O=C(Nc1ccccc1)c1nnsc1[S+]([O-])c1ccc(Cl)cc1 (stereo not given)")
"1.06 µM (active)"

Problem: Give EC50 for CCCOc1ccc(C2C(C(=O)c3cc4ccccc4o3)=C(O)C(=O)N2c2cc(C)on2)cc1OC (stereo not given) tested on UniProt:P10520.
Solution: > 150 µM (not active)

Problem: Report measured EC50 on UniProt:P10520; entry: CCOC(=O)c1c(NC(S)=NCCc2ccccc2)sc2c1CC(C(C)C)OC2 (stereo not given)
Solution: > 150 µM (not active)

Problem: Report EC50 from UniProt:P10520 testing of `Cc1nc(N)sc1-c1csc(N(C)c2ccc(O)cc2)n1`
Solution: > 150 µM (not active)

Problem: Recall the reported EC50 of `O=c1c2ccccc2oc2cc(-c3ccc4[nH]ccc4c3)ccc12` on UniProt:P10520 and write it down.
Solution: > 150 µM (not active)

Problem: GET EC50 | system: UniProt:P10520 | item: `CC(C)[C@@H](C(=O)NC1CCCC1)N1C(=O)N2CCc3c([nH]c4ccccc34)[C@@]2(C)C1=O`
Solution: > 150 µM (not active)

Problem: Find EC50 for `COc1ccc(CCNC(=O)c2ccc(CNS(=O)(=O)c3ccc(C(C)(C)C)cc3)cc2)cc1OC` on UniProt:P10520 and write it down.
Solution: > 150 µM (not active)

Problem: Write down the reported EC50 (system: UniProt:P10520) of `COc1ccc(/C=C2/Sc3ccc(C(=O)N4CCc5ccccc5C4)cc3NC2=O)cc1`
Solution: > 150 µM (not active)

Problem: Look up UniProt:P10520 data: EC50 of Cc1[nH]n(-c2ncc(-c3ccccc3)s2)c(=O)c1C(c1ccc(Br)cc1)C(C#N)C#N (stereo not given) , then report it.
Solution: > 150 µM (not active)

Problem: Write down measured EC50 (UniProt:P10520) for this compound. `O=C1C=C(Nc2ccccc2)c2ccccc2C1=O`
Solution: > 150 µM (not active)

Problem: Write EC50 of `N=c1c2c(-c3ccccc3)c(-c3ccccc3)oc2ncn1Cc1ccco1` ; system used: UniProt:P10520
Solution: 17.5 µM (active)

Problem: State measured EC50 of the compound COc1ccc(-c2cc3nc(-c4ccccc4)cc(N4CCCC(O)C4)n3n2)cc1 (stereo not given) with UniProt:P10520.
Solution: > 150 µM (not active)

Problem: Please respond with reported EC50 (system UniProt:P10520) for `Cc1nnc(NC(=O)c2ccc(S(=O)(=O)N(C)Cc3ccccc3)cc2)o1` .
Solution: > 150 µM (not active)

###

- MEASUREMENT TARGET: Replicative DNA helicase DnaB (Mycobacterium tuberculosis)
- ASSAY METHOD TEXT: DnaB intein splicing inhibitors, dose response, biochemical, cell-free fluorescence (AID 449749)
- Format: functional
Active and inactive are the calls of the source.
Returns: one label drawn from yes for active, no for inactive

Before answering, review these 5 worked examples.
>>> assigned_label("CC(=O)N1C(=O)C2(C(C#N)=C(N)Oc3c2c(C)nn3-c2ccccc2)c2ccccc21 (stereo unspecified)")
"yes"
>>> assigned_label("COc1cccc(-c2[nH]nc3c2C(c2ccoc2)C(C#N)=C(N)O3)c1 (stereo unspecified)")
"yes"
>>> assigned_label("COc1cc(C=C(c2nc3ccccc3s2)c2nc3ccccc3s2)ccc1O")
"no"
>>> assigned_label("COC(=O)c1c(NC(=O)/C=C/C(=O)O)sc(C)c1-c1ccc(C(C)C)cc1")
"yes"
>>> assigned_label("COc1ccc2ccc3c(c2c1)N=CC1(O3)N(C)c2ccccc2C1(C)C (stereo unspecified)")
"yes"

Problem: Short answer needed: outcome of this test for Cc1ccc(SCc2n[nH]c3c2C(c2ccco2)C(C#N)=C(N)O3)cc1 (stereo unspecified) ?
Solution: yes

###

- MEASUREMENT TARGET: Beta-galactosidase (Escherichia coli, UniProt Q8VNN2)
- Sequence (Q8VNN2 whole entry): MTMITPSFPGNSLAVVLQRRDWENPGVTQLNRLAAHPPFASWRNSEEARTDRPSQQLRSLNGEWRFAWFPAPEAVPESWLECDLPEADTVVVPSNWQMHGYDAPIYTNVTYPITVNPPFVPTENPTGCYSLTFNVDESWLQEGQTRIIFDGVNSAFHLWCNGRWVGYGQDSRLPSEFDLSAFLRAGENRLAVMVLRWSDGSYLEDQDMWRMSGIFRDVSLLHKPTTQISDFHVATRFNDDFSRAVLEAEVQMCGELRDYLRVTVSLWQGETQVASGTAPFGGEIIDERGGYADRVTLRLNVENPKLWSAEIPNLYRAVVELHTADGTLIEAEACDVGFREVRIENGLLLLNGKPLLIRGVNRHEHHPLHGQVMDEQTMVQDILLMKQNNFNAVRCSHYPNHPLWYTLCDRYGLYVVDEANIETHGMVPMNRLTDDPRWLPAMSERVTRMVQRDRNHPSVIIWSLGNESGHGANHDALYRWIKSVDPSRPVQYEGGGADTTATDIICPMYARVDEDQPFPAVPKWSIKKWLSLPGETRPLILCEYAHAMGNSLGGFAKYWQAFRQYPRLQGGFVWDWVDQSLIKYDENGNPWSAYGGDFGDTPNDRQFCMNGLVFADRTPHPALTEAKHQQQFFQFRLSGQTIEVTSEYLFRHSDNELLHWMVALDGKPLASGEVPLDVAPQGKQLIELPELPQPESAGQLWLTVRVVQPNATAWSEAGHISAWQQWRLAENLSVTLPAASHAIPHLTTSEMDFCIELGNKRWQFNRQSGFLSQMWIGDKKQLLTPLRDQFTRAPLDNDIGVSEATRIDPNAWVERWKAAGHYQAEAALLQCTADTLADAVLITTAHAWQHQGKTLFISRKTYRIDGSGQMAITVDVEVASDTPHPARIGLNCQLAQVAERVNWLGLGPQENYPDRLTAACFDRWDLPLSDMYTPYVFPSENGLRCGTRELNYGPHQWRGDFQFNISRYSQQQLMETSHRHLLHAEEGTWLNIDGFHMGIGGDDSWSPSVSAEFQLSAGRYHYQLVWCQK
- ASSAY METHOD TEXT: Dose response counterscreen for EBI2 assay utilizing the enzyme, b-galactosidase.
- Assay type: functional
Activity calls are given as the source filed them.
READOUT KIND: IC50

// worked examples, IC50 included
>>> observed_result("COc1ccc(/C=C(\\C#N)C(=O)Nc2cc(S(=O)(=O)N3CCOCC3)ccc2N2CCCC2)cc1")
"> 80 µM (inactive)"
>>> observed_result("CCc1ccc2oc(C(=O)N3CCN(c4ccccc4OC)CC3)cc(=O)c2c1")
"> 80 µM (inactive)"
>>> observed_result("CCCc1nn(-c2ccccc2)c2c1C(c1cccs1)C(C#N)=C(N)O2 (stereo not given)")
"> 80 µM (inactive)"
>>> observed_result("O=C(/C=C/c1ccc(Cl)cc1)N1CCN(c2ccc([N+](=O)[O-])c(N3CCOCC3)c2)CC1")
"> 80 µM (inactive)"

Then there is this compound:
Problem: Please report the measured IC50 for `O=C(/C=C/c1ccccc1)N1CCN(c2cccc(Cl)n2)CC1`
Solution: > 80 µM (inactive)

###

- ASSAY METHOD TEXT: reduction of Shn3 3'UTR-driven luciferase in osteoblasts – cell-based, Clone20 osteoblasts, firefly luciferase, cherry-picked, dose response (AID 624132);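 note: firefly luciferase luminescence from reporter carrying the Shn3 3'UTR in osteoblasts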
- Format: functional
Activity calls are given as the source filed them.
Property: AC50; scope: individual molecules

Problem: Quick one: give measured AC50 for `Cn1c(=O)c2c(nc(NCc3ccco3)n2CCc2ccccc2)n(C)c1=O`
Solution: 2340 nM (active)

Problem: Look up AC50 of `Cn1c(=O)c2c(nc(NCc3ccco3)n2C/C=C/c2ccccc2)n(C)c1=O` and report it.
Solution: 1080 nM (active)

Problem: Using known records, supply AC50 for CC1CN(S(=O)(=O)c2ccc(C(=O)Nc3nc(-c4cc5ccccc5o4)cs3)cc2)CC(C)O1 (centres undefined)
Solution: < 260 nM (active)

Problem: Report AC50 for `COc1ccc(NC(=O)c2sc3ncnc(N4CCN(c5ccccn5)CC4)c3c2C)cc1Cl`
Solution: 4080 nM (active)

###

This section presents compounds with their documented IC50 values.
- MEASUREMENT TARGET: Calpain-2 catalytic subunit (Sus scrofa)
- Sequence (P43367 whole entry): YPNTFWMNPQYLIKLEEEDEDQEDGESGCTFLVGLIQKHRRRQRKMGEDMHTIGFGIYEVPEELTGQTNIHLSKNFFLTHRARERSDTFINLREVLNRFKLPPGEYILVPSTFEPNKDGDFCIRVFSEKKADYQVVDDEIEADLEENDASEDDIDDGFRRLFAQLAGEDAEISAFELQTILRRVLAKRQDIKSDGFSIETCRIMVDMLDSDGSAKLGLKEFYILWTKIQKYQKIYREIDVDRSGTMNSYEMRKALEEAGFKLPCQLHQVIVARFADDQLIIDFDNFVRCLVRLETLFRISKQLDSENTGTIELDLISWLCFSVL
- ASSAY METHOD TEXT: m-calpain protease blockers, concentration series – biochemical, fluorogenic peptide substrate, dose response (AID 1420)
- Format: functional
Activity calls are given as the source filed them.

Problem: Give the observed IC50 of `CCN1/C(=C/c2ccc3cccc(C)c3[n+]2CC)Sc2ccccc21` for Calpain-2 catalytic subunit (Sus scrofa).
Solution: > 50 µM (not active)

Problem: For Calpain-2 catalytic subunit (Sus scrofa), give the measured IC50 of the entry `COc1ccccc1N1CCN(C(=O)c2ccc(CSc3ccccc3)cc2)CC1`
Solution: 8.99 µM (not active)

Problem: Provide IC50, system Calpain-2 catalytic subunit (Sus scrofa), entry `Cn1c(NCc2ccccc2)nc2c1c(=O)n(Cc1ccc(Br)cc1)c(=O)n2C`
Solution: 5.48 µM (active)

Problem: Supply IC50 measured with Calpain-2 catalytic subunit (Sus scrofa) for `O=C(Nc1cccc(C(=O)O)c1)/C(=C\C=C\c1ccccc1)NC(=O)c1ccccc1` .
Solution: 13.6 µM (not active)

Problem: Quote IC50 with test system Calpain-2 catalytic subunit (Sus scrofa) for `O=C(COc1ccc(C(=O)c2ccccc2)cc1)NCc1ccc(F)cc1`
Solution: > 50 µM (not active)

Problem: Look up and report IC50, with Calpain-2 catalytic subunit (Sus scrofa) as system, for `Cc1ccc(NC(=O)CN(C)C(=O)CCCN2C(=O)c3ccccc3C2=O)cc1`
Solution: 10.3 µM (not active)

Problem: Name the recorded IC50 of O=C(Nc1ccc(Oc2ccccc2)cc1)C1CCCN(c2ncccn2)C1 (centres undefined) , assay system Calpain-2 catalytic subunit (Sus scrofa).
Solution: 14.7 µM (not active)

Problem: Enter IC50 (test system Calpain-2 catalytic subunit (Sus scrofa)) for `Cc1cc(C)c(NC(=O)Cn2cc3c(n2)CCCC3)c(C)c1`
Solution: 20.5 µM (not active)

Problem: Under Calpain-2 catalytic subunit (Sus scrofa): report IC50 of COc1ccc(NC(C)c2cc(Cl)ccc2O)cc1 (centres undefined) .
Solution: 13.9 µM (not active)
